Overview of recorded pIC50 for various molecules
- tgt: CXCR3 (Macaca fascicularis)
- Sequence (A0A2K5UV19 entry or part of it): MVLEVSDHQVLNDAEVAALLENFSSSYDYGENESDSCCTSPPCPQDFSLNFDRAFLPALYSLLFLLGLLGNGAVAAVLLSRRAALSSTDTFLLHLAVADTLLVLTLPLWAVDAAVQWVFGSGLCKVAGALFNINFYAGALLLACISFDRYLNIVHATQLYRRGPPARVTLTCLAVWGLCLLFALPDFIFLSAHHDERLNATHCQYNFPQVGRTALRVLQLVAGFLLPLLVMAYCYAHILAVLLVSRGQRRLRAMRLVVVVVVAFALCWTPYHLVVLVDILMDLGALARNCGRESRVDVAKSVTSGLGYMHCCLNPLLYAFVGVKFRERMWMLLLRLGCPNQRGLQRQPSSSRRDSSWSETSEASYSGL
- experimental.protocol: functional cellular assay measuring calcium flux in CXCR3 transfected cells (block of CXCR3/IP-10 interaction)
- particulars: IP-10 induced intracellular calcium flux; Cyno-CHO cells stably expressing recombinant CXCR3 and G-alpha-16
pIC50 is defined as minus the log10 of a concentration measured in mol/L.

As a guide, the following entries are already answered.
| smiles.structure | tgt | observable | observed |
| --- | --- | --- | --- |
| Cc1cc(C)n(CC(=O)N2CCN(c3ccccc3C(=O)Nc3ccccc3)CC2)n1 | CXCR3 (Macaca fascicularis) | pIC50 | 7.89 |
| Cc1nn(-c2ccccc2)c(C)c1CC(=O)N1CCN(c2ccccc2C(=O)Nc2ccncc2)CC1 | CXCR3 (Macaca fascicularis) | pIC50 | 7.80 |
| Cc1cc(C)n(CC(=O)N2CCN(c3ccccc3C(=O)Nc3cnc(-c4ccccc4)nc3)CC2)n1 | CXCR3 (Macaca fascicularis) | pIC50 | 7.98 |
| COc1ccc(C(=O)NCC(=O)N2CCN(c3ncc(Cl)cc3NC(=O)c3cccc(C(F)(F)F)c3)CC2)cc1OC | CXCR3 (Macaca fascicularis) | pIC50 | 8.06 |
| O=C(Nc1ccc(C(F)(F)F)nc1)c1ccccc1N1CCN(C(=O)Cn2ccc3cccnc32)CC1 | CXCR3 (Macaca fascicularis) | pIC50 | 8.16 |

Value (pIC50, CXCR3 (Macaca fascicularis)) for record "Cc1nn(CC(=O)N2CCCN(c3ncc(Cl)cc3NC(=O)c3cccc(Cl)c3)CC2)c(C)c1Cl" = 7.82

Value (pIC50, CXCR3 (Macaca fascicularis)) for record "O=C(Nc1ccncc1)c1ccccc1N1CCN(C(=O)Cn2ccc3cccnc32)CC1" = 8.31

Value (pIC50, CXCR3 (Macaca fascicularis)) for record "Cc1cc(C)n(CC(=O)N2CCN(c3ccccc3C(=O)Nc3ccccc3F)CC2)n1" = 8.26

Value (pIC50, CXCR3 (Macaca fascicularis)) for record "CN(CC(=O)N1CCN(c2ccccc2C(=O)Nc2ccncc2)CC1)C(=O)c1cccn1C" = 8.19
